Biological target: human recombinant DP IV (Homo sapiens)
Sequence (P27487 whole entry): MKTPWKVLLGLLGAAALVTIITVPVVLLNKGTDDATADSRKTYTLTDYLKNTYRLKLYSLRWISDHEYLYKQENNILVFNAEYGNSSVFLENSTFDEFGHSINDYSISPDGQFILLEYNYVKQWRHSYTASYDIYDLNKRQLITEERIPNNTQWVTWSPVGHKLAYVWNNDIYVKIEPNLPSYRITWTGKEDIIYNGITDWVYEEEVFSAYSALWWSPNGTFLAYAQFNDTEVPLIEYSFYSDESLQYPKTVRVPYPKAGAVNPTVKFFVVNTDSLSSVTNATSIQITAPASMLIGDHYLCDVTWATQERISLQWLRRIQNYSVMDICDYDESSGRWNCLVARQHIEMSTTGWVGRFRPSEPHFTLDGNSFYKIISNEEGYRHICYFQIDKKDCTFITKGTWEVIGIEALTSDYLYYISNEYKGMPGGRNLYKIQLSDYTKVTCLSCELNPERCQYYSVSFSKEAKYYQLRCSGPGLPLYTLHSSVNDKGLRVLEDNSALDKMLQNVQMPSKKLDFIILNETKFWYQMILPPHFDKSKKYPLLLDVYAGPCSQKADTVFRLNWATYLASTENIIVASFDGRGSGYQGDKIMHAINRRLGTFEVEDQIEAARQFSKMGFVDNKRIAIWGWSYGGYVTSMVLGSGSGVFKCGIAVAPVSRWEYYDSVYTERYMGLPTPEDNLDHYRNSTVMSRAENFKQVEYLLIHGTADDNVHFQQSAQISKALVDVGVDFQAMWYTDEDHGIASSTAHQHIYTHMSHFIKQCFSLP
Assay: IC50 of DP IV inhibition, human recombinant enzyme (Gly-Pro-pNA substrate)
Settings: Gly-Pro-pNA 0.4 mM, HEPES pH 7.6, 30° C.
pIC50: −log10 of the molar value.

COMPOUND	SYSTEM	pIC50
CC(C)(C)[C@H](N)C(=O)N1CC2CC2C1B(O)O (stereo partly drawn) [Example 2]	human recombinant DP IV (Homo sapiens)	7.12
CC(C)[C@H](N)C(=O)N1CC2CC2C1B(O)O (stereo partly drawn) [Example 1]	human recombinant DP IV (Homo sapiens)	7.50
CC[C@H](C)[C@H](N)C(=O)N1CC2CC2C1B(O)O (stereo partly drawn) [Example 3]	human recombinant DP IV (Homo sapiens)	7.35
